Test Summary: Tmax in Sprague-Dawley rat at 100 mg/kg, po
Assay type: ADME, organism-based
Parameters: dose 100 mg/kg, route oral
Reported Conditions: in vivo
Measured Metric: Tmax (h)
Numbers only, in h.

Query block: Return reported Tmax; argument: COC(=O)N[C@H](C(=O)N1CCC[C@H]1c1ncc(-c2ccc(C34CCC(c5cnc([C@@H]6CCCN6C(=O)[C@@H](NC(=O)OC)C(C)C)[nH]5)(CC3)CC4)cc2)[nH]1)C(C)C
Result block: 2

----------
Test Summary: Inhibition of NS5A in HCV genotype-1a infected in human HuH7 cells by luciferase reporter gene assay
Format: cell-based, Hepatitis C virus subtype 1a
Reported Conditions: Hepatitis C virus, Huh-7
Can you tell me EC50 for the items I'm about to list?
Numbers only, in nM.

Solved cases (4 shown):
COC(=O)N[C@H](C(=O)N1CCC[C@H]1c1ncc(-c2ccc([C@H]3CC[C@H](c4cnc([C@@H]5CCCN5C(=O)[C@@H](NC(=O)OC)C(C)C)[nH]4)CC3)cc2)[nH]1)C(C)C | 2
COC(=O)N[C@H](C(=O)N1CCC[C@H]1c1ncc(-c2cc(F)c(N3CCC(c4cnc([C@@H]5CCCN5C(=O)[C@@H](NC(=O)OC)C(C)C)[nH]4)CC3)c(F)c2)[nH]1)C(C)C | 3.8
COC(=O)N[C@@H](C(=O)N1CCC[C@H]1c1ncc(-c2ccc([C@H]3CC[C@H](c4cnc([C@@H]5CCCN5C(=O)[C@@H](c5ccccc5)N(C)C)[nH]4)CC3)cc2)[nH]1)c1ccccc1 | 1.4
COC(=O)N[C@@H](C(=O)N1CCOC[C@H]1c1ncc(-c2cc(F)c(N3CCC(c4cnc([C@@H]5CCCN5C(=O)[C@H](NC(=O)OC)c5ccccc5)[nH]4)CC3)c(F)c2)[nH]1)c1ccccc1 | 73

Query block: GET /values?readout=EC50&item= COC(=O)N[C@H](C(=O)N1CCC[C@H]1c1ncc(-c2ccc(C34CCC(c5cnc([C@@H]6CCCN6C(=O)[C@@H](NC(=O)OC)C(C)C)[nH]5)(CC3)CC4)cc2)[nH]1)C(C)C
Result block: 1.4

Values compiled from ChEMBL document CHEMBL3351465.
